half-life at 1 µM for assorted compounds
experiment: In vitro human hepatic clearance in cellular relay format; assay type: in vitro ADME; settings: cryopreserved hepatocytes in suspension (relay format); human hepatocytes relay, 5 incubations of 4 hrs, 0.5E+06 viable cells/mL
Write it as a number; the unit h goes unstated.

Please review the following examples before continuing.
(Q) Look up half-life at 1 µM for this compound: CCc1cc2ncc(CN3CCN(c4ccc(C(=O)NC)nc4C#N)CC3)cc2[nH]c1=O [Example 1]
(A) 32.5

(Q) Look up half-life at 1 µM for this compound: CCc1cc2ncc(CN3CCN(c4ccc(C(=O)NC)nc4)[C@H](C)C3)cc2[nH]c1=O [Example 2]
(A) 31.5

(Q) Look up half-life at 1 µM for this compound: CCc1cc2ncc(CN3CCN(c4cnc(C(=O)NC)c(F)c4)CC3)cc2[nH]c1=O [Example 5]
(A) 109

Note: attention shifts to another entry.
(Q) Look up half-life at 1 µM for this compound: CCc1cc2ncc(CN3CCN(c4ccc(C(=O)NC)nc4)CC3)cc2[nH]c1=O [AZD5305]
(A) 31.8

* * *

System: Human cryopreserved hepatocytes
Assay: In vitro human hepatic clearance in cellular relay format
Type: in vitro ADME
Conditions: predicted human hepatic clearance, well-stirred liver model, scaled from in vitro CLint
Description: Example C: In Vitro Human Hepatic Clearance in Cellular Relay Format Working stocks of individual test articles were prepared at concentrations of 100 μM by diluting 10 mM stocks prepared in DMSO 100-fold (v:v) into ACN/1H2O (50/50, v:v). […] Cell viability was determined using an Acridine Orange/Propidium Iodine stain, and hepatocytes were further diluted with incubation media to 0.5E+06 viable cells/mL. […]
Clhep,pred for assorted compounds

Please review the following examples before continuing.
(Q) Look up Clhep,pred for this compound: "O=C(NC1CC1)c1ccc(N2CCN(Cc3cnc4cc(C5CC5)c(=O)[nH]c4c3)CC2)cn1"
(A) <0.9 mL/min/kg

(Q) Look up Clhep,pred for this compound: "CCc1cc2ncc(CN3CCN(c4ccc(C(=O)NC)nc4)CC3)cc2[nH]c1=O"
(A) 1.69 mL/min/kg

Note: attention shifts to another entry.
(Q) Look up Clhep,pred for this compound: "CNC(=O)c1ccc(N2CCN(Cc3cnc4cc(C5CC5)c(=O)[nH]c4c3)CC2)cn1"
(A) <0.9 mL/min/kg

* * *

tested on: Human cryopreserved hepatocytes; assay: In vitro human hepatic clearance in cellular relay format; assay type: in vitro ADME; conditions: predicted human hepatic clearance, well-stirred liver model, scaled from in vitro CLint
Clhep,pred for assorted compounds
Write it as a number; the unit mL/min/kg goes unstated.

(Q) Look up Clhep,pred for this compound: CCc1cc2ncc(CN3CCN(c4ccc(C(=O)NC)nc4)[C@H](C)C3)cc2[nH]c1=O [Example 2]
(A) 1.71

***
(Q) Look up Clhep,pred for this compound: CCc1cc2ncc(CN3CCN(c4ccc(C(=O)NC)nc4C#N)CC3)cc2[nH]c1=O [Example 1]
(A) 1.67

(Q) Look up Clhep,pred for this compound: CCc1cc2ncc(CN3CCN(c4cnc(C(=O)NC)c(F)c4)CC3)cc2[nH]c1=O [Example 5]
(A) 0.53

* * *

experiment: In vitro human hepatic clearance in cellular relay format; format: in vitro ADME; conditions: cryopreserved hepatocytes in suspension (relay format); human hepatocytes relay, 5 incubations of 4 hrs, 0.5E+06 viable cells/mL
readout.name: half-life at 1 µM

Please review the following examples before continuing.
(Q) Look up half-life at 1 µM for this compound: "CCc1cc2ncc(CN3CCN(c4ccc(C(=O)N[C@H](C)COC)nc4)CC3)cc2[nH]c1=O"
(A) > 62.1 h

(Q) Look up half-life at 1 µM for this compound: "CNC(=O)c1ccc(N2CCN(Cc3cnc4cc(C5CC5)c(=O)[nH]c4c3)CC2)cn1"
(A) > 62.1 h

Note: attention shifts to another entry.
(Q) Look up half-life at 1 µM for this compound: "O=C(NC1CC1)c1ccc(N2CCN(Cc3cnc4cc(C5CC5)c(=O)[nH]c4c3)CC2)cn1"
(A) > 62.1 h
